Data origin, for the record: paper PMC12040169

experiment: in vitro; details: human, hela cells, % viability
Form field: viability at 28.5 h, 10 µM (one value per entry).

compound	measure.unit	viability at 28.5 h, 10 µM
CN(C)CC1CCCCN1S(=O)(=O)c1ccc(C(C)(C)C)cc1 (stereo not shown)	%	108
O=C(Cn1ncc2cccn2c1=O)OC1CCCCC1	%	91.8
Cc1ccc2c(c1)C(=O)CC1(CCC3C(C(=O)NC4CCCC4)C31)O2 (stereo not shown)	%	83.4
CCC(=O)N(Cc1cc2cc(C)ccc2nc1O)c1ccc(C)c(C)c1	%	107
CCC(CC)C(=O)Nc1nc(OC)cnc1-c1cccc(C(=O)N(C)C)c1	%	98.5
N#CCCCN1CCC(Oc2nccnc2OCc2cccc(Cl)c2)CC1	%	90.6
Cc1ccc(CN2CCNCC2CCO)o1 (stereo not shown)	%	92.3
CCn1c(CN[C@@H]2CCC[C@H]2Cc2cc(C)no2)cnc1SC	%	96.6
CN1CCN(C(=O)Cn2cccc(C(=O)Nc3ccc(F)cc3)c2=O)C(c2ccccc2)C1 (stereo not shown)	%	96.6
CC(C)(CSc1nnc(Nc2ccccc2)s1)NS(=O)(=O)c1ccc(Cl)cc1	%	108
